For each record, write down the corresponding PBM binding z-score.
Tested on: VDR:RXRa (NR concentration 270 nM, RXRa partner concentration 90 nM)
assay_procedure: PBM binding z-score (relative to random genomic background probes); higher = stronger binding; sequences stand for … in GC…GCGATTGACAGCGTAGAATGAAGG

So what does the record say about PBM binding z-score for TCTCGGAGGACACGAAAGTCAGAGCTTTCCAGAG ?
-0.402

# PBM binding z-score lookup, item TTACCAAGGTGAAAGGTCCTTGATGCACGCCTTG
0.75

Requested read-out: PBM binding z-score. Entry: GGAACGAGGGCAAGTAGATAGCAGAGTTTGATGG
0.536

Param item = AGAATGAGGCTAAGATCAGGGAAACAGAATACAT ; retrieve measured PBM binding z-score.
-0.231

Suppose we examine the sequence CCTAGCAGGCCAATCTGGGTCACTCCAGGCTTGA ; what PBM binding z-score value has been reported?
0.284

State the recorded PBM binding z-score for this entry: CCTCGTTGGTCAGGAGGTCACACACCGGATATGA
3.77

Endpoint output: PBM binding z-score of CGTACAAGGTCAAGGTCAGTGAAAGAGACTCGAA . Value?
4.98

What measured PBM binding z-score goes with AATACAGGGTCAGCGTAGGCCAGAGTACGCACAG ?
3.44

Which measured PBM binding z-score value corresponds to TCTGCTAGGTCAACGATGGTCAGCTGATCTGCTA ?
1.73

# query: PBM binding z-score of entry ATCTCTAGGGAACAAGTTCAGTGAAAGAGAGGAC
1.48

What value of PBM binding z-score has been recorded for this entry: CCTACTGGGCAATCAGGTCATTGATATCAACGTT
2.83

// lookup PBM binding z-score for TCTTGTACATCAATAGAGGTTAAGAAAGTGCGCT
2.07

State the recorded PBM binding z-score for this entry: CCTACTGGGCCAACGGTCATTGATTCCAATGCTC
-0.502

# input sequence: CTCAAAAGGTCGGTTGAGGTGAGTATACGGATAA ; wanted: its PBM binding z-score
2.54

Quick one: PBM binding z-score for TCTTGTAGATCAGCAGGCTAAGAAAGCTGGCCAA ?
-0.106

Quick check: PBM binding z-score of TAGCCTAGGTCAATCAGGGGCCAGTATAGAAAGC ?
2.32

Look up PBM binding z-score for this sequence: GGAACGAGGGCATTCGAGTTGATTGCATGGCGAT
3.81

Quick one: PBM binding z-score of AGTCAAAGTTCACTACGTAACGTAAGATTCAGCT ?
3.72

Any idea what PBM binding z-score was measured for AGAACGAGGGCAATGTGTTGATAGCACGGGTGGC ?
0.824

Record request: PBM binding z-score value, item AGAATGAGGTTAAGATCTGGGAAACAGAATACAT
1.13

Item under review: ATAGACAGGTGATGAAGGTAACTCAGGCTATCAT . Reported PBM binding z-score?
0.166

Reported PBM binding z-score, sequence CCTTACGGGTCACTGACAGGATATAGCATTTGGA : ____
3.36

Entry under review: GGAATGAGGGCAAAGTTGATAGCATCTGTCGACG . Reported PBM binding z-score?
1.82

Which measured PBM binding z-score value corresponds to CGTCCAAGGTCAAAGGTCCGTGAAGAGATGACGG ?
4.62

For CGTCCAAGGTCGAGGTCAGTGAAAGAGACTCGAA , what is its reported PBM binding z-score?
3.73

Using the record for ATCTCTAGGTAAAGCTCAGTGAAAGATCGATAGA , report its PBM binding z-score.
-0.295
